Test system: MS2 coat protein
Assay: apparent KD of MS2 coat protein; higher = weaker reporter binding
Settings: Eterna round: R107; input ligand: arginine 13.2 mM
Catalogue of apparent KD of MS2 coat protein readings, one per entry.
Give the value, in units of nM, as a plain number.

INSERT INTO results (construct_sequence, tgt, reported_metric, unit_label, value) VALUES
  ('UGUCCUCAUGCGGCCGCCACUGUCGGCCGCCACUAAACAUGAGGAUCACCCAUGUAGGACCGGGACAGGACCGGGCAUGGGUGCU [TryBS - #DoubleAptamer]', 'MS2 coat protein', 'apparent KD of MS2 coat protein', 'nM', 132),
  ('GCCGCUGCCGCGAUAUGUAUGGGUGUGUAACGAGGACCGGUACGGCCGCCACUCGCGAUCGCACAUGAGGAUCACCCAUGUGUCC [Exclusion Tryp A GF18]', 'MS2 coat protein', 'apparent KD of MS2 coat protein', 'nM', 26.5),
  ('GUCCACAGCCGAAGGAGCGCUAGAAGAUGACAUGAGGAUCACCCAUGUGUGUGAUGUGGCUAGCAGGUAGGUCGCGGAGUGGAUU [Exclusion - Arginine B (Freestyle 14)]', 'MS2 coat protein', 'apparent KD of MS2 coat protein', 'nM', 20.5);

Give the reported apparent KD of MS2 coat protein for UAAUAAUUGUGAUUCUCAGGUCCUCGAUAACGAGGACCGGUACGGCCGCCACUCGAACAUGAGGAUCACCCAUGUAUGAGGACCU [M'-T'-T-MS2-T'' - Design 3] (system: MS2 coat protein).
13.8

Can you handle UCUCGGUCUUUCUUUCUCCGAGAAUAUGAUACCAGUUAGUUUUAUGGCCCUUGGCAGCAUAGAACAUGAGGAUCACCCAUGUGUU [SSThA NP+V+V2 #9 +-Same Structure] next?
48.1

Can you handle AUAAUAAUGUCGGCCGCCACUAUAAACAUGAGGAACAUGAGGAUCACCCAUGUAUGAGGAUCACCUAGGACCGGGACUAAUAUUA [AstrosExyTryB#5] next?
33.9

Can you handle GCGAUGGAGCGAAGGAGCGGCUGUGACUACAUGAGGAUCACCCAUGUACGAUUGUAAGGUAGCCAGGUAGGUCGCGCUCCAUCGC [SSAB NP+V+V2 #18] next?
14

Can you handle UAAUCCGGUCCUCGAUAGGUGAUCCUCUAACGAGGACCGGUACGGCCGCCACUCGAUAACAUGAGGAUCACCCAUGUAAUAAUAA [|T'-M'-Trp-Ms2|_Design16] next?
33

Can you handle "GGACUAACCAGAAGGAGCGACACGCAGAAACUGCAAUUUCCUCCGCACGAGGAUCACCCGUGUCAGGUAGGUCGCUGGUUAGUCG" next?
20.6

Can you handle AUUAACAUGAGGAUCACCCAUGUUCUCACACGAGGACCGGUACGGCCGCCACUCGGUUUGGUAUUGGUCACUAGGCAGUUAGGAG [theeternabot_sameState_MS2_Trp_A_12] next?
15.2
